targetSystem: Beta-secretase 1 (Homo sapiens, UniProt P56817)
Sequence (P56817 whole entry): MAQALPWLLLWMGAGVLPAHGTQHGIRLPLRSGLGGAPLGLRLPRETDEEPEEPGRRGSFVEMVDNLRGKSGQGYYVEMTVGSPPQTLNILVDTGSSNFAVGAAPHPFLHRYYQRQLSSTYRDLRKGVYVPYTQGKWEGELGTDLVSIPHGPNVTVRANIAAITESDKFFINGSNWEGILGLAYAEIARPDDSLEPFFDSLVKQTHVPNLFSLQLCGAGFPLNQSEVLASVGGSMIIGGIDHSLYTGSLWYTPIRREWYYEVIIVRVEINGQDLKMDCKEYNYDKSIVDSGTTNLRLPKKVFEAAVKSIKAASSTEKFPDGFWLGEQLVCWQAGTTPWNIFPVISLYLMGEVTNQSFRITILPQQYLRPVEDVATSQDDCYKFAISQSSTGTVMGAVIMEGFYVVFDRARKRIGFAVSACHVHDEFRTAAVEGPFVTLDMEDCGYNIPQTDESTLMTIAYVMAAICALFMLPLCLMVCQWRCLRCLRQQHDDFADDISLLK
Reported IC50 values for the following compounds.
outcomeMeasure: IC50

>>> print(df.to_string())
                                   compound  outcomemeasure  observed
0              O=C(/C=C/c1ccccc1O)c1ccccc1O            IC50   > 60 µM
1  O=C(/C=C/c1ccccc1O)c1ccccc1 [Chalcone, 1]            IC50   > 60 µM
2       C=CCOc1ccccc1/C=C/C(=O)c1ccc(O)cc1O            IC50   > 60 µM
